- assay overview: protein stability index of a GFP-peptide fusion (GPS, HEK-293T) (PSI 1-6); higher = more stable;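 note: 24-mer peptide tiles fused after GFP, lentivirally expressed, FACS-sorted into six equal bins by GFP/DsRed ratio, decoded by Illumina sequencing, PSI is the read-weighted mean bin number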
- condition label: treatment: MLN4924 1 uM, 8 h; c terminus: a fixed tail appended
measured quantity: protein stability index

Some entries whose results are on file:
# sequence record, protein stability index
measured = [
    ("EEGLADEEKKLRRSQHARKETEFL [STK38L]", 5.2),
    ("RGGGGGGGGGAPRGRYGPPSRRSE [SRSF1]", 5.49),
    ("RSSHLVIHERTHERERLYPFSECG [ZNF263]", 3.25),
    ("TVLAVLEDSSRDIREALHELLCCT [INTS4]", 2.29),
    ("RNGSERVVTSAREHIYDLRSLENY [CLINT1]", 3.81),
]

Below are 3 sequences. Give each one its protein stability index.
1. VAFVDRADIKQYIGPPSAAAIFKI [TRIP13]
2. GEEQVELSTIEELIKDAIVSTQPA [C2CD2L]
3. RWGYVAMKFAQVFGCFFYVYYIFE [SOAT1]

A)
1: 2.36; 2: 4.7; 3: 3.18

Below are 6 sequences. Give each one its protein stability index.
1. LMDIVPADDHRYKFADNKWSVTGK [TBX5]
2. LELTVRRVQGVLRGRAREREQLQA [HES6]
3. GGYETFYSEYPECCVDVKPISQEK [DUSP5]
4. WESSAGGSFTVRADHGEPIGRGTK [HSP90AB1]
5. DFDYNAIDNANRILGPAYFVTYVF [PKD2L1]
6. EMLSASRYPTISMVKPLLHMLLNT [ZBED1]

A)
3.54
3.64
4.22
4.79
2.66
3.02

###

- assay overview: protein stability index of a GFP-peptide fusion (GPS, HEK-293T) (PSI 1-6); higher = more stable
- condition label: treatment: MLN4924 1 uM, 8 h; c terminus: a fixed tail appended
protein stability index of 4 or higher: 1.0. Under 4: 0.0.

Example cases with answers are listed next.
# sequence record, label class
measured = [
    ("ENSGILQGKLIKRQRLAKNDRGDH [EFHC1]", 1.0),
    ("ETAGQKPLSVHRPPTSGCLGPVPR [TSPAN10]", 1.0),
    ("PSPASEQTVTVEEAAGGESALAPS [MAP2]", 1.0),
    ("LHVAARYGHELLINTLITSGADTA [ANKRD44]", 0.0),
]

Q) Is protein stability index at least 4? Consider SGGHERSRDRRRSSDRSRDSSHER [BTBD10]
A) 1.0

Q) Is protein stability index at least 4? Consider HQLDFVQVKASSPVPATPILQLEE [TRIM9]
A) 1.0

Q) Is protein stability index at least 4? Consider RLPFLSSSNLSLDVLRGNDETIGF [POMP]
A) 0.0

Q) Is protein stability index at least 4? Consider LVLAIPLLLILVSYVHILSAILQF [OR10K2]
A) 0.0

Q) Is protein stability index at least 4? Consider MADQDPAGISPLQQMVASGTGAVV [SLC25A39]
A) 1.0

Q) Is protein stability index at least 4? Consider LLSRINKDWLEGTVRGATGIFPLS [NCF4]
A) 0.0

Q) Is protein stability index at least 4? Consider GKDEIEAAVKAAREAFPSWSSRSP [ALDH8A1]
A) 1.0

Q) Is protein stability index at least 4? Consider DAVPPGMESLISAPLVKTLEKEEE [CDC25B]
A) 1.0

Q) Is protein stability index at least 4? Consider SDLKDDDAVPPGMESLISAPLVKT [CDC25B]
A) 1.0

Q) Is protein stability index at least 4? Consider KTIDLGAAAHYTGDKASPDQNAST [CLINT1]
A) 1.0

Q) Is protein stability index at least 4? Consider ASSRSQQSSKRSSRSVEDDKEGHL [CLK3]
A) 1.0

Q) Is protein stability index at least 4? Consider STFYPPYHSPELTTPPGHGTLDNS [NEUROD6]
A) 1.0

Q) Is protein stability index at least 4? Consider EDYSRDEDHIAHIIELLGSIPRHF [SRPK2]
A) 0.0

Q) Is protein stability index at least 4? Consider WTVWSGNRASLYSFPEPEAAQPMT [PRAME]
A) 0.0

Q) Is protein stability index at least 4? Consider AANSYDLAIKAITSSAKVDMTFEE [FKBP8]
A) 1.0

Q) Is protein stability index at least 4? Consider NSLQSYQLSPNKHFSLRVQSRANG [PCDHGA10]
A) 0.0
